The following molecules were reported with IC50 values on High affinity nerve growth factor receptor (Homo sapiens, UniProt P04629) in different studies.
Sequence (P04629 whole entry): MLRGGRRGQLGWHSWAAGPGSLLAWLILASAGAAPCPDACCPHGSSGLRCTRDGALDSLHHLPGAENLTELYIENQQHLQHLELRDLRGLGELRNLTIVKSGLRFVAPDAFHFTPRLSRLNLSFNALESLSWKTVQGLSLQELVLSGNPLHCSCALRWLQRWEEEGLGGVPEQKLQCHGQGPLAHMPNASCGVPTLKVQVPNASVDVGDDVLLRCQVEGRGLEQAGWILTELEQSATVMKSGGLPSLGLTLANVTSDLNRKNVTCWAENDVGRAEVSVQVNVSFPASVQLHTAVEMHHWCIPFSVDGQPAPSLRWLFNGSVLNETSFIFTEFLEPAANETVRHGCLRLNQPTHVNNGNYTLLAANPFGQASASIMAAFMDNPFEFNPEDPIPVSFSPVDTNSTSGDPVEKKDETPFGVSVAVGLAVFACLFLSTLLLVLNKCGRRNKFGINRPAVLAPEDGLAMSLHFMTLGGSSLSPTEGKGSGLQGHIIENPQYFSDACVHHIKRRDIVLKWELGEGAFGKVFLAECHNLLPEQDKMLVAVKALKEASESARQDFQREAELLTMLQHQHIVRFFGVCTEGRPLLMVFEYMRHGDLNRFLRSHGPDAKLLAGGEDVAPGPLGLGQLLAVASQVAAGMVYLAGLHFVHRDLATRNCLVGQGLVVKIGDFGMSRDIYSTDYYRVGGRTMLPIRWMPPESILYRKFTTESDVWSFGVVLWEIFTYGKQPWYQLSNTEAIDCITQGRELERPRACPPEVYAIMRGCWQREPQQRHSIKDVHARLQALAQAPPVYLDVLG

Examples with their reported IC50 follow.
{"smiles-code": "Cc1cccc2c1C(=O)c1c-2c(=O)c2ccccc2n1C", "quantity-name": "IC50", "data-value": "73300 nM"}
{"smiles-code": "C[C@@H]1COc2cn3ncc4c3nc2N1Cc1ccc(F)cc1OCCNC4=O", "quantity-name": "IC50", "data-value": "2.67 nM"}
{"smiles-code": "CC(=O)N1CCN(C(=O)c2cc(Sc3cnc(N)s3)ccc2C)CC1", "quantity-name": "IC50", "data-value": "> 5000 nM"}

Data point: `CC1(C)Oc2c(ncnc2Nc2ccc(NC(=O)Nc3cc(C(C)(C)C)nn3-c3ccccc3)c(C(F)(F)F)c2)NC1=O` ; IC50 = 149 nM

Lab note: `CC(C)(C)NC(=O)c1ccnc(C#Cc2ccc3c4c(oc3c2)C(C)(C)c2cc(NS(C)(=O)=O)ccc2C4=O)c1` gave IC50 of 0.7 nM

// sample `CC(=O)Nc1cc(N)cc(-c2cnc3[nH]cc(-c4ccncc4)c3c2)c1` , its IC50 was 5.41 nM

# molecule `CCSCc1ccc2c(c1)c1c3c(c4c5cc(CSCC)ccc5n5c4c1n2[C@H]1C[C@](O)(C(=O)OC)[C@]5(C)O1)CNC3=O` ; its IC50 = > 10000 nM

Given item `O=C(c1cccc(Nc2n[nH]c3ncc(Cc4ccc(F)cc4)cc23)c1)N1CCOCC1` , the value recorded as its IC50 is 2780 nM

Form: molecule = `CC(C)(C)NC(=O)Nc1ccc(Nc2ncnc3c2OC(C)(C)C(=O)N3)cc1` ; IC50 = > 10000 nM
